test_summary: self-splicing fitness, log relative to wild type (ln ratio); higher = more splicing; Tetrahymena group I intron in knt gene, E. coli kanamycin selection, DiMSum; sequences stand for … in CUCUCU…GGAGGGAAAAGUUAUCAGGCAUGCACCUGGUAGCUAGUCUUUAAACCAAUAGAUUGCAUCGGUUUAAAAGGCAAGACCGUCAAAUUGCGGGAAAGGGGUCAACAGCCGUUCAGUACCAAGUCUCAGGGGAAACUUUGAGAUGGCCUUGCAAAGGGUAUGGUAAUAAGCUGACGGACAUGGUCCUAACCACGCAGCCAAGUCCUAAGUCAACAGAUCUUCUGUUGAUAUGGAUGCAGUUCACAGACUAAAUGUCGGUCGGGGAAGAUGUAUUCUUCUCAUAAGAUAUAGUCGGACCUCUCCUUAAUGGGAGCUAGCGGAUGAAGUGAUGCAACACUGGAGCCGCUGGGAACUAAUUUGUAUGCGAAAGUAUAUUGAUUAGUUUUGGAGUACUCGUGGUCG;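 further: selection with 25 µg/mL kanamycin versus none on LB agar overnight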
test_conditions: 37 °C
Binary classification by self-splicing fitness (ln), with -1 as an inclusive lower bound for yes; all other cases are no.

- seq_string: "GAGCAGCAAUAUUACGAUAC"
  assigned_label: "no"
- seq_string: "AAACAGCAAUAUUACGUACC"
  assigned_label: "yes"
- seq_string: "CGUUAGCAAUAUUACGCGGA"
  assigned_label: "no"
- seq_string: "UUACAGCAAUAUUACGCAAG"
  assigned_label: "yes"
- seq_string: "CAUCAGCAAUAUUACGACGG"
  assigned_label: "yes"
- seq_string: "AACGAGCAAUAUUACGCCAG"
  assigned_label: "no"
- seq_string: "CGAUAGCAAUAUUACGGUAC"
  assigned_label: "no"
- seq_string: "GCGCAGCAAUAUUACGGGGG"
  assigned_label: "no"
- seq_string: "GAUCAGCAAUAUUACGUUUG"
  assigned_label: "yes"
- seq_string: "CGCCAGCAAUAUUACGAAUU"
  assigned_label: "no"
- seq_string: "UACAAGCAAUAUUACGCAGG"
  assigned_label: "no"
- seq_string: "AUCUAGCAAUAUUACGUGGA"
  assigned_label: "no"
- seq_string: "CAAUAGCAAUAUUACGCUUU"
  assigned_label: "no"
- seq_string: "ACACAGCAAUAUUACGUCUU"
  assigned_label: "yes"
- seq_string: "GACAAGCAAUAUUACGCCGG"
  assigned_label: "no"
- seq_string: "ACUUAGCAAUAUUACGUCGU"
  assigned_label: "no"
- seq_string: "CUUCAGCAAUAUUACGGUUA"
  assigned_label: "no"
- seq_string: "UCUUAGCAAUAUUACGUGAG"
  assigned_label: "yes"
- seq_string: "GGUGAGCAAUAUUACGGCUU"
  assigned_label: "yes"
- seq_string: "AUCCAGCAAUAUUACGAGAU"
  assigned_label: "no"
- seq_string: "UACAAGCAAUAUUACGUCCU"
  assigned_label: "yes"
- seq_string: "UGACAGCAAUAUUACGGAUG"
  assigned_label: "yes"
- seq_string: "GCUUAGCAAUAUUACGUCGU"
  assigned_label: "yes"
- seq_string: "GCUUAGCAAUAUUACGCAGU"
  assigned_label: "no"
- seq_string: "UAGUAGCAAUAUUACGGCGC"
  assigned_label: "no"
- seq_string: "UCGCAGCAAUAUUACGGGCA"
  assigned_label: "yes"
- seq_string: "AUAGAGCAAUAUUACGUUAU"
  assigned_label: "yes"
- seq_string: "GCCGAGCAAUAUUACGAGAC"
  assigned_label: "no"
- seq_string: "GGCGAGCAAUAUUACGCGAA"
  assigned_label: "no"
- seq_string: "CAUUAGCAAUAUUACGAACC"
  assigned_label: "no"
- seq_string: "GAUCAGCAAUAUUACGACGG"
  assigned_label: "yes"
- seq_string: "CUAUAGCAAUAUUACGACGG"
  assigned_label: "yes"
- seq_string: "AUUAAGCAAUAUUACGUUGG"
  assigned_label: "no"
- seq_string: "ACAAAGCAAUAUUACGGAGC"
  assigned_label: "no"
- seq_string: "GCAGAGCAAUAUUACGGAGA"
  assigned_label: "no"
- seq_string: "AUCCAGCAAUAUUACGGGGA"
  assigned_label: "no"
- seq_string: "UGUGAGCAAUAUUACGGUCA"
  assigned_label: "yes"
- seq_string: "UAUAAGCAAUAUUACGCCUA"
  assigned_label: "yes"
- seq_string: "UGUCAGCAAUAUUACGUGAU"
  assigned_label: "no"
- seq_string: "CGAUAGCAAUAUUACGUGAC"
  assigned_label: "no"
- seq_string: "AUGGAGCAAUAUUACGUGUC"
  assigned_label: "no"
- seq_string: "GGGCAGCAAUAUUACGCUUU"
  assigned_label: "yes"
- seq_string: "AGCAAGCAAUAUUACGCGUC"
  assigned_label: "no"
- seq_string: "UCGGAGCAAUAUUACGGGGG"
  assigned_label: "no"
- seq_string: "AGAGAGCAAUAUUACGCGAC"
  assigned_label: "no"
- seq_string: "GUCAAGCAAUAUUACGCUUC"
  assigned_label: "no"
- seq_string: "GAUAAGCAAUAUUACGGCCA"
  assigned_label: "yes"
- seq_string: "GGAAAGCAAUAUUACGUGUC"
  assigned_label: "no"
- seq_string: "AUUCAGCAAUAUUACGCGCG"
  assigned_label: "yes"
- seq_string: "GUGAAGCAAUAUUACGGUUG"
  assigned_label: "no"
- seq_string: "GGUGAGCAAUAUUACGAGAU"
  assigned_label: "no"
- seq_string: "UACCAGCAAUAUUACGCUCU"
  assigned_label: "yes"
- seq_string: "CUGUAGCAAUAUUACGGAUG"
  assigned_label: "yes"
- seq_string: "AACAAGCAAUAUUACGGUGA"
  assigned_label: "yes"
- seq_string: "GAGAAGCAAUAUUACGACUC"
  assigned_label: "no"
- seq_string: "UCCAAGCAAUAUUACGGCAU"
  assigned_label: "no"
- seq_string: "CGGGAGCAAUAUUACGAGUC"
  assigned_label: "no"
